target: PIM3 (human); assay: radiometric filter-binding kinase assay, Kinase HotSpot; conditions: compound 0.5 µM; ATP 10 µM
This section presents compounds with their documented residual activity values.
Write the value in % as a bare number.

{"SMILES": "COc1cc2c(cc1OC)-c1[nH]nc(Nc3cccc(F)c3)c1C2", "OBSERVED_RESULT": 95.3}
{"SMILES": "c1ccc(-c2cnc(Nc3ccc(OCCN4CCCC4)cc3)s2)cc1", "OBSERVED_RESULT": 120}
{"SMILES": "O=C1NC(=O)c2cc(Nc3ccc(F)cc3)c(Nc3ccc(F)cc3)cc21", "OBSERVED_RESULT": 105}

residual activity for O=c1[nH]c2ccccc2n1C1CCN(Cc2ccc(-c3nc4cc5[nH]cnc5cc4nc3-c3ccccc3)cc2)CC1 ?
106

And for O=C(c1ccccc1)c1ccc(N2CCOCC2)cc1O ?
98.9

And for O=c1c2ccccc2[nH]c(=S)n1CCN1CCC(=C(c2ccc(F)cc2)c2ccc(F)cc2)CC1 ?
108
